Assay: Fraction unbound by equilibrium dialysis
Assay type: in vitro ADME
Settings: pH 7.4; Table 6; fraction unbound used to correct plasma clearance
Description: The fraction unbound (fu) ([Masimirembwa et al., 2003]) of the test compounds was determined after incubation with different media, namely, plasma, microsomes, and buffer with 10% FCS. Equilibrium dialysis was performed in a 96-well plate (HT-Dialysis, Gales Ferry, CT) in which each well was divided by a semipermeable membrane (12–14 kDa cutoff). […] Each compound was evaluated in triplicate. […]
So I've got a bunch of molecules here, and I need their fraction unbound at 4 h, 1 µM values.
Hey, just send me the number, nothing else.

Lab note: O=C(COc1ccc2ccccc2c1)NCCc1nc2ccccc2[nH]1 [Compound 35] gave fraction unbound at 4 h, 1 µM of 0.02

Lab note: C=CCCn1c(CCNC(=O)COc2ccccc2Cl)nc2ccccc21 [Compound 38] gave fraction unbound at 4 h, 1 µM of 0.01

Lab note: O=C(COc1ccccc1[N+](=O)[O-])NCCc1nc2ccccc2[nH]1 [Compound 32] gave fraction unbound at 4 h, 1 µM of 0.04

Lab note: N#Cc1ccccc1OCC(=O)NCCc1nc2ccccc2[nH]1 [Compound 31] gave fraction unbound at 4 h, 1 µM of 0.15

Lab note: O=C(COc1ccc(Br)cc1)NCCc1nc2ccccc2[nH]1 [Compound 33] gave fraction unbound at 4 h, 1 µM of 0.16

Lab note: O=C(COc1ccccc1Br)NCCc1nc2ccccc2[nH]1 [Compound 18] gave fraction unbound at 4 h, 1 µM of 0.03

Lab note: Cc1ccccc1OCC(=O)NCCc1nc2ccccc2o1 [Compound 37] gave fraction unbound at 4 h, 1 µM of 0.05

Lab note: O=C(CCc1ccccc1Br)NCCc1nc2ccccc2[nH]1 [Compound 36] gave fraction unbound at 4 h, 1 µM of 0.04

Lab note: O=C(Cn1ccnc1[N+](=O)[O-])NCc1ccccc1 [BZ, benznidazole, reference compound] gave fraction unbound at 4 h, 1 µM of 0.99

Lab note: Cc1ccccc1OCC(=O)NCCc1nc2ccccc2[nH]1 [Compound 17] gave fraction unbound at 4 h, 1 µM of 0.06
